Consider molecules characterized by their log10 of Ki with Prothrombin (Homo sapiens).
The common logarithm of Ki in µM is what is listed.

N=C(N)c1ccc(NC(=O)c2cccc(Cl)c2O)cc1 : 0.00
CCOc1ccc(C(=O)Nc2ccc(C(=N)N)cc2)c(O)c1 : 1.53
N=C(N)Nc1ccc(NC(=O)c2cc([N+](=O)[O-])ccc2O)cc1 : 2.50

Hey, quick one: what's log10 of Ki for each of these?
1. Cc1cc(Br)c(O)c(C(=O)Nc2ccc(NC(=N)N)cc2)c1
2. N=C(N)c1ccc(NC(=O)c2cc(Br)ccc2O)cc1
3. Cc1ccc(O)c(C(=O)Nc2ccc(C(=N)N)cc2)c1
4. [H]/N=C(/N)c1ccc(NC(=O)c2cc(C)cc(I)c2O)cc1Cl

Response:
1: 2.10; 2: 1.46; 3: 1.15; 4: 2.39
